protocolNotes: Displacement of ethidium from poly[d(A-T)]-poly[d(A-T)] DNA by fluorimetric method
// label = true if C50 is not less than 0.2 µM, otherwise false

Say whether C[n+]1cccc(NC(=O)c2ccc(NC(=O)c3ccc(C(=O)Nc4ccc(NC(=N)N)cc4)cc3)cc2)c1.I.[I-] shows C50 of 0.2 µM or more. true

For CCC[n+]1cccc(NC(=O)c2ccc(NC(=O)c3ccc(C(=O)Nc4ccc(C(=O)Nc5ccc[n+](CCC)c5)cc4)cc3)cc2)c1.Cc1ccc(S(=O)(=O)[O-])cc1.Cc1ccc(S(=O)(=O)[O-])cc1 then? true

For C[n+]1ccc(Nc2ccc(NC(=O)c3ccc(C(=O)Nc4ccc(Nc5cc[n+](C)cc5)cc4)cc3)cc2)cc1.Cc1ccc(S(=O)(=O)[O-])cc1.Cc1ccc(S(=O)(=O)[O-])cc1 then? false

For C[n+]1cc(-c2ccc(NC(=O)/C=C/c3ccc(C(=O)Nc4ccc(-c5c[n+](C)c(N)nc5N)cc4)cc3)cc2)c(N)nc1N.Cc1ccc(S(=O)(=O)[O-])cc1.Cc1ccc(S(=O)(=O)[O-])cc1 then? false

For Cc1cc(C(=O)Nc2ccc(C(=O)Nc3ccc[n+](C)c3)cc2)c(C)cc1C(=O)Nc1ccc(C(=O)Nc2ccc[n+](C)c2)cc1.Cc1ccc(S(=O)(=O)[O-])cc1.Cc1ccc(S(=O)(=O)[O-])cc1 then? true

For C[n+]1ccc(-c2ccc(-c3ccc(-c4ccc(NC(=O)c5ccc(C(=O)Nc6ccc(-c7ccc(-c8ccc(-c9cc[n+](C)cc9)cc8)cc7)cc6)cc5)cc4)cc3)cc2)cc1.Cc1ccc(S(=O)(=O)[O-])cc1.Cc1ccc(S(=O)(=O)[O-])cc1 then? true

For C[n+]1ccc(Nc2ccc(C(=O)Nc3ccc(Nc4cc[n+](C)c5ccc(N)cc45)c(N)c3)cc2)cc1.Cc1ccc(S(=O)(=O)[O-])cc1.Cc1ccc(S(=O)(=O)[O-])cc1 then? true

For CC(=O)Nc1ccc2c(Nc3ccc(NC(=O)c4ccc(Nc5cc[n+](C)cc5)cc4)cc3)cc[n+](C)c2c1.Cc1ccc(S(=O)(=O)[O-])cc1.Cc1ccc(S(=O)(=O)[O-])cc1 then? false

For C[n+]1ccc(Nc2ccc(NC(=O)CCCCCC(=O)Nc3ccc(Nc4cc[n+](C)cc4)cc3)cc2)cc1.[Br-].[Br-] then? true

For Cc1c[n+](C)c2ccccc2c1Nc1ccc(C(=O)Nc2ccc(Nc3cc[n+](C)cc3)cc2)cc1.[Br-].[Br-] then? true

For C[n+]1ccc(Nc2ccc(NC(=O)c3ccc(Nc4cc[n+](C)c5ccccc45)cc3)cc2N)cc1.[I-].[I-] then? true

For C[n+]1cccc(NC(=O)c2ccc(NC(=O)c3ccc(C(=O)Nc4ccc(N/N=N/c5ccc(C(=N)N)cc5)cc4)cc3)cc2)c1.Cc1ccc(S(=O)(=O)O)cc1.Cc1ccc(S(=O)(=O)[O-])cc1 then? true

For CC[n+]1cc(-c2ccc(NC(=O)c3ccc(C(=O)Nc4ccc(-c5c[n+](CC)c(N)nc5N)cc4)cc3)cc2)c(N)nc1N.Cc1ccc(S(=O)(=O)[O-])cc1.Cc1ccc(S(=O)(=O)[O-])cc1 then? true

For C[n+]1ccc(Nc2ccc(C(=O)Nc3ccc(Nc4cc[n+](C)c5ccc(N)cc45)cc3)cc2)cc1.Cc1ccc(S(=O)(=O)[O-])cc1.Cc1ccc(S(=O)(=O)[O-])cc1 then? false

For C[n+]1ccc(Nc2ccc(NC(=O)c3ccc(Nc4cc[n+](C)c5ccccc45)cc3)cc2)cc1.[Br-].[Br-] then? false

For C[n+]1ccc(-c2ccc(NC(=O)c3ccc(Nc4cc[n+](C)c5ccccc45)cc3)cc2)cc1.Cc1ccc(S(=O)(=O)[O-])cc1.Cc1ccc(S(=O)(=O)[O-])cc1 then? true

For Cc1cc(C(=O)Nc2ccc(C(=O)Nc3ccc[n+](C)c3)cc2)ccc1C(=O)Nc1ccc(C(=O)Nc2ccc[n+](C)c2)cc1.Cc1ccc(S(=O)(=O)[O-])cc1.Cc1ccc(S(=O)(=O)[O-])cc1 then? true

For C[n+]1ccccc1Nc1ccc(NC(=O)c2ccc(C(=O)Nc3ccc(Nc4cccc[n+]4C)cc3)cc2)cc1.Cc1ccc(S(=O)(=O)[O-])cc1.Cc1ccc(S(=O)(=O)[O-])cc1 then? true

For C/C(=N\NC(=N)N)c1ccc(C(=O)Nc2ccc(Nc3cc[n+](C)c4ccc(N)cc34)cc2)cc1.Cc1ccc(S(=O)(=O)O)cc1.Cc1ccc(S(=O)(=O)[O-])cc1 then? false

For COc1cc(C(=O)Nc2ccc(C(=O)Nc3ccc[n+](C)c3)cc2)ccc1C(=O)Nc1ccc(C(=O)Nc2ccc[n+](C)c2)cc1.Cc1ccc(S(=O)(=O)[O-])cc1.Cc1ccc(S(=O)(=O)[O-])cc1 then? true

For C[n+]1ccc(Nc2ccc(NC(=O)c3ccc(Nc4cc[n+](C)c5cc(Cl)ccc45)cc3)cc2)cc1.[Br-].[Br-] then? true

meta.source: ChEMBL document CHEMBL3228010
